test details: Human HepG2 cell viability assay in 384 well format
Format: toxicity, cell-based
Set-up: dose 125 nL, time 70.5 hour; concentration not given beside the values
condition details: HepG2 cells, read-out: Inhibition
measurement label: cytotoxicity at 70.5 h (%)
Write it as a number; the unit % goes unstated.

Measured cytotoxicity at 70.5 h of CCN(C)C(=O)C1(c2ccc(F)cc2F)CCC1 : 4.95

Measured cytotoxicity at 70.5 h of CC(c1ccc(F)cc1)n1ccnc1-c1cc2n(n1)CCCNC2 (centres undefined) : -6.66

Measured cytotoxicity at 70.5 h of CC(O)CN1CCC(CN(C)CC(=O)NC2CCOCC2)CC1 (centres undefined) : -2.54

Measured cytotoxicity at 70.5 h of CNC(=O)C1(N(C)CCc2ccccc2)Cc2ccccc2C1 : -1.19

Measured cytotoxicity at 70.5 h of CNC(=O)C1CCCN(C(=O)OC)C1 (centres undefined) : -5.12

Measured cytotoxicity at 70.5 h of Cc1cnn(C2CN(CC(=O)NCCc3c[nH]c4ccccc34)C2)c1 : -9.92

Measured cytotoxicity at 70.5 h of CS(=O)(=O)N1CCOCC2(CCN(c3ccccn3)C2)C1 (centres undefined) : -10.4

Measured cytotoxicity at 70.5 h of C=C(C)COc1cccc(C(=O)N(C)C(C)c2ccncn2)c1 (centres undefined) : -7.56

Measured cytotoxicity at 70.5 h of Cc1ccoc1C(=O)N(CCN(C)C)Cc1ccccn1 : -2.01

Measured cytotoxicity at 70.5 h of Cc1nn(C)cc1-c1cc(C(F)(F)F)n(CCCN)n1 : -0.484

Measured cytotoxicity at 70.5 h of COc1ccc(C(=O)N(C)Cc2nnc3ccccn23)c(OC)c1 : -15.7

Measured cytotoxicity at 70.5 h of Cn1cc(-c2c(C#N)c(N)nc3c2CCc2[nH]ccc2-3)cn1 : 17.1

Measured cytotoxicity at 70.5 h of O=C(Cc1cccs1)N1C[C@@H]2OCCN(CC3CCCO3)[C@@H]2C1 (some centres undefined) : -1.51

Measured cytotoxicity at 70.5 h of Cc1ccc(CN(CC(=O)N2CCOC(C)C2)C2CC2)cc1 (centres undefined) : -6.74

Measured cytotoxicity at 70.5 h of CS(=O)(=O)CCCNCc1c(Cl)cccc1N1CCCC1 : -10.5

Measured cytotoxicity at 70.5 h of COCCCC(=O)NS(=O)(=O)c1ccc2c(c1)OCCCO2 : -8.6

Measured cytotoxicity at 70.5 h of CSc1ncc(C(=O)N2C[C@H]3CC[C@@H]2CN(S(=O)(=O)N(C)C)C3)cn1 : -1.22

Measured cytotoxicity at 70.5 h of Cc1ccc(C(=O)N2CCN(CCc3cccs3)CC2)c(=O)[nH]1 : -8.54

Measured cytotoxicity at 70.5 h of CCS(=O)(=O)CCSc1ccc(Br)cc1 : -6.15

Measured cytotoxicity at 70.5 h of CC1c2ncc(Cn3cncn3)n2CCN1C(=O)C1CCOCC1 (centres undefined) : -2.59

Measured cytotoxicity at 70.5 h of Cc1nc(C)n(C2CCCN(C(=O)CCOc3cccc(F)c3)C2)n1 (centres undefined) : -6.19

Measured cytotoxicity at 70.5 h of Cc1ncsc1CN1C[C@@H]2COC[C@]2(CNC(=O)c2ccccc2)C1 : -7.33

Measured cytotoxicity at 70.5 h of CNC(=O)c1cn(C)c(-c2nc3cc(NC(C)=O)ccc3n2C)c1OC : -17.5

Measured cytotoxicity at 70.5 h of COCCCS(=O)(=O)N1CCN(C(C)(C)CO)CC1 : -7.76
